assay: yeast display, Sf9 membrane polyspecificity reagent, FACS + sequencing; frameworks hold sequencing errors

{"residues": "QVQLVETGGGLVQAGGSLRLSCAASGNTFHSNAMGCYSQAPGKERELVAAITPSDGDPYYADSVKGRFTISRDNAKNTVYLQMNSLKPEDTAVYYCAAEDDPGEYEYWGQGTQVTVSS", "polyreactivity (PSR sort gate)": "low polyreactivity"}
{"residues": "QVQLVDSGGGLVQAGGSLRLSCAASGRTFDGYAMGWYRQAPGKERELVAAISRTGGSTYYADSVKGRFTISRENAKNTVYLLMTSLKPEDTAVYYCNAVTLSSTYGGHDYWGQGTQVTVSS", "polyreactivity (PSR sort gate)": "high polyreactivity"}
{"residues": "QVQLVESGGGLVQAGGSLRLSCAASGRSFESYAMGWYRQAPGKERELVAAITWSGGDTYYADSVKGRFTISRDNAKNTVYLQMNSLKPEDTAVYYCAKEQGLYSVSPYDYWGQGTQVTVSS", "polyreactivity (PSR sort gate)": "low polyreactivity"}
{"residues": "QVQLVESGGGLVQAGGSLRLSCAASGSTFYPYAMGWYRQAPGKERELVAAITTRGRTYYGDSVKGRFTISRDNAKYTVYLQMNSLKPEDTAVYYCNARRYFSRDTSGYNYWGQGTQVTVSS", "polyreactivity (PSR sort gate)": "high polyreactivity"}
{"residues": "QVQLVESGGGLVQAGGSLRISCAASGYTFLAYAMGWYRQAPGKERELVAAISRSGVSTYYADSVKGRFTISRDNAKNTVYLQMYSLKTEYTAVYYFNARSGRQLARYGYWGHGTQVTVSS", "polyreactivity (PSR sort gate)": "high polyreactivity"}
{"residues": "QVQLVESGVGLVQAGGSLRLSCAASGRIFNSYAMGWYRQAPGKERELVAAISRNGGITYYADSVKGRFTISRDNAKNTVYLQMNSLKPEDTAVYYCAADGLTPKAIWTSDYWGQGTQVTVSS", "polyreactivity (PSR sort gate)": "high polyreactivity"}
{"residues": "QVQLVESGGGLVQAGGSLRLSCAASGSIYNINAMGWYRQAPGKERELVATITSGGTTSYADSVKGRFTISRDNAKNTVYLQMNSLKPEDTAVYYCNAEIYPIVKAGRQHPRRYDYWGQGTQVTVSS", "polyreactivity (PSR sort gate)": "low polyreactivity"}
{"residues": "QVQLVESGGGLVQAGGSLRLSCAASVITYFVYAMGWYRQAPGKERELVAAITSGDSTSYADSVKGRFTISRDNAKNTVYLQMNSLKPEDTAVYYCAAEQVTIEDGVYFDFNSWGQGTQVTVSS", "polyreactivity (PSR sort gate)": "low polyreactivity"}
{"residues": "QVQLVESGGGLVQAGGSLRLSCAASGRTFVYNAMGWYRQAPGKERELVATITFSGGSTYYADSVKGRFTISRDNAKNTVYLQMNSLKPEDTAVYYCNTQGVHHYYHAPQVRGYDYWGQGTQVTVSS", "polyreactivity (PSR sort gate)": "low polyreactivity"}
{"residues": "QFQLVESGGGLVQAGGSLRLSCAASGLTIDPNAMGWYRQAPGKERELVATITQTDGSTYYADSVKGRFTISRDNAKNTVYLQMNSLKPEDTAVYYCVGLVSRGSDYWGQGTQVTVSS", "polyreactivity (PSR sort gate)": "low polyreactivity"}
{"residues": "QVQLVESGGGLVQAGGSLRLSCAASGGIIDWYVMGWYRQAPGKERELVAAISYNGGATYYADSVKGRFTISRDNAKNTVYLQMNSLKPEDTAVYYCAAGVTWPYRYVWYVYWGQGTQVTVSS", "polyreactivity (PSR sort gate)": "low polyreactivity"}
